Assay: Liver microsomal stability assay (mouse)
Type: in vitro ADME
Conditions: Mouse liver microsomes 0.5 mg/mL, NADPH and UDPGA, 1 µM compound
REPORTED METRIC: microsomal CLint at 1 µM (µL/min/mg)
Numbers only, in µL/min/mg.

Ask | Input CC(C)(O)c1cc2nc(C3CCN(CC4CCN(c5cc6c(cc5F)C(=O)N(C5CCC(=O)NC5=O)C6=O)CC4)CC3)cn2cc1NC(=O)c1cccc(C(F)(F)F)n1 (stereo not shown) , output reported microsomal CLint at 1 µM.
Reply | 9.67

====

Experiment: Liver microsomal stability assay (human)
Format: in vitro ADME
Settings: Human liver microsomes 0.5 mg/mL, NADPH and UDPGA, 1 µM compound
REPORTED METRIC: microsomal CLint at 1 µM (µL/min/mg)
Numbers only, in µL/min/mg.

Ask | Input CC(C)(O)c1cc2nc(C3CCN(CC4CCN(c5cc6c(cc5F)C(=O)N(C5CCC(=O)NC5=O)C6=O)CC4)CC3)cn2cc1NC(=O)c1cccc(C(F)(F)F)n1 (stereo not shown) [Example 15] , output reported microsomal CLint at 1 µM.
Reply | 3.46
